A collection of compounds and their measured IC50
Biological target: Muscarinic acetylcholine receptor M2 (Homo sapiens)
Sequence (P08172 whole entry): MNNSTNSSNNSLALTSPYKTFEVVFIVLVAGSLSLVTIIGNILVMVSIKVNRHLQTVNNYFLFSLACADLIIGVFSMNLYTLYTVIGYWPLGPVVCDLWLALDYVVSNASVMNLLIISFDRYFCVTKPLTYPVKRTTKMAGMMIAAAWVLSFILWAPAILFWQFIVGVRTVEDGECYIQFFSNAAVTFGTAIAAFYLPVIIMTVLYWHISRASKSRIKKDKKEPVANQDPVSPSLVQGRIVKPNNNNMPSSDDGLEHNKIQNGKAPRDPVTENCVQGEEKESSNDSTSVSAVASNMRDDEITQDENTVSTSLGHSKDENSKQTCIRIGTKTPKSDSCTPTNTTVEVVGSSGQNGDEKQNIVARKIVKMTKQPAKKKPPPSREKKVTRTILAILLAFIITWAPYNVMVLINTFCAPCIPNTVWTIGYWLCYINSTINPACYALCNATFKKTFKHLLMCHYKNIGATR
Experiment: Antagonist activity at human muscarinic M2 receptor expressed in HEK293 cells co-expressing HA-Galphaq/i5 assessed as inhibition of carbachol-induced IP1 accumulation at 37 degree C pre-incubated for 30 mins followed by carbachol addition and measured after 60 mins by HTRF assay
Assay type: functional, cell-based
parameter: IC50

INSERT INTO assay_data (smilescode, targetorsystem, parameter, valuereported) VALUES
  ('CC1(C)C(/C=C/C=C/C=C2/N(CCCCCC(=O)NCCNC(=O)CCc3cn(CCCCC4CCN(CC(=O)N5c6ccccc6NC(=O)c6ccccc65)CC4)cn3)c3ccc(S(=O)(=O)O)cc3C2(C)C)=[N+](CCCCS(=O)(=O)[O-])c2ccccc21.O=C(O)C(F)(F)F', 'Muscarinic acetylcholine receptor M2 (Homo sapiens)', 'IC50', '355 nM'),
  ('CC1(C)C(/C=C/C=C/C=C2/N(CCCCCC(=O)NCc3cc(C(=O)NCCNC(=O)CCc4cn(CCCCC5CCN(CC(=O)N6c7ccccc7NC(=O)c7ccccc76)CC5)cn4)cc(C(=O)NCCNC(=O)CCc4cn(CCCCC5CCN(CC(=O)N6c7ccccc7NC(=O)c7ccccc76)CC5)cn4)c3)c3ccc(S(=O)(=O)O)cc3C2(C)C)=[N+](CCCCS(=O)(=O)[O-])c2ccccc21.O=C(O)C(F)(F)F.O=C(O)C(F)(F)F.O=C(O)C(F)(F)F', 'Muscarinic acetylcholine receptor M2 (Homo sapiens)', 'IC50', '24 nM'),
  ('CC1(C)C(/C=C/C=C/C=C2/N(CCCCCC(=O)NCCN3CCN(CCCCC4CCN(CC(=O)N5c6ccccc6NC(=O)c6ccccc65)CC4)CC3)c3ccc(S(=O)(=O)O)cc3C2(C)C)=[N+](CCCCS(=O)(=O)[O-])c2ccccc21.O=C(O)C(F)(F)F.O=C(O)C(F)(F)F', 'Muscarinic acetylcholine receptor M2 (Homo sapiens)', 'IC50', '224 nM'),
  ('CC1(C)C(/C=C/C=C/C=C2/N(CCCCCC(=O)NCCN3CCN(CCCCC4CCN(CC(=O)N5c6ccccc6NC(=O)c6ccccc65)CC4)CC3)c3ccccc3C2(C)C)=[N+](CCCCS(=O)(=O)[O-])c2ccccc21', 'Muscarinic acetylcholine receptor M2 (Homo sapiens)', 'IC50', '49 nM');

* * *

Parameter 'readout' = Ki; parameter 'system' = Muscarinic acetylcholine receptor M3 (Homo sapiens, UniProt P20309).
Sequence (P20309 whole entry): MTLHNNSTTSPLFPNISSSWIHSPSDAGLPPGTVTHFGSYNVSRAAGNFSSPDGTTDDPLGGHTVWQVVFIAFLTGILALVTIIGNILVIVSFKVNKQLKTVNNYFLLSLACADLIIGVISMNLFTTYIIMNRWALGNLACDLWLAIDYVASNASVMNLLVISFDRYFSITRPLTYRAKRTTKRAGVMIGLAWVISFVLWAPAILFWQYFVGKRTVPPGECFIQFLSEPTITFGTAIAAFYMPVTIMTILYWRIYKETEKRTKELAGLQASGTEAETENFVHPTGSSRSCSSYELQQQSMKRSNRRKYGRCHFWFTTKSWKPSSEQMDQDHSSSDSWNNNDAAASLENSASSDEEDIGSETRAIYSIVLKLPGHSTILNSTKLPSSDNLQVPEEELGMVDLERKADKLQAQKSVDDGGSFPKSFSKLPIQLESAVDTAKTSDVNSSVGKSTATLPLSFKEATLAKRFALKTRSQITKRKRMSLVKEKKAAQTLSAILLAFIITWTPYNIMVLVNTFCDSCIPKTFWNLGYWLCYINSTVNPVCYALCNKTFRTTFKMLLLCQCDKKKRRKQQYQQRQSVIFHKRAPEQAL
parameter: Ki (nM)

INSERT INTO assay_data (smilescode, valuereported) VALUES
  ('NCCN1CCN(CCCCC2CCN(CC(=O)N3c4ccccc4NC(=O)c4ccccc43)CC2)CC1', 145),
  ('CC1(C)C(/C=C/C=C/C=C2/N(CCCCCC(=O)NCCN3CCN(CCCCC4CCN(CC(=O)N5c6ccccc6NC(=O)c6ccccc65)CC4)CC3)c3ccc(S(=O)(=O)O)cc3C2(C)C)=[N+](CCCCS(=O)(=O)[O-])c2ccccc21.O=C(O)C(F)(F)F.O=C(O)C(F)(F)F', 81.3),
  ('Cc1cc(/C=C/C=C/c2ccc(N(C)C)cc2)cc(C)[n+]1CCN1CCN(CCCCC2CCN(CC(=O)N3c4ccccc4NC(=O)c4ccccc43)CC2)CC1', 148),
  ('CC1(C)C(/C=C/C=C/C=C2/N(CCCCCC(=O)NCCCCC3CCN(CC(=O)N4c5ccccc5NC(=O)c5ccccc54)CC3)c3ccccc3C2(C)C)=[N+](CCCCS(=O)(=O)[O-])c2ccccc21', 871),
  ('C[N+]1=C(/C=C/C=C/C=C2/N(CCCCCC(=O)NCCCCC3CCN(CC(=O)N4c5ccccc5NC(=O)c5ccccc54)CC3)c3ccccc3C2(C)C)C(C)(C)c2ccccc21', 631),
  ('CC1(C)C(/C=C/C=C/C=C2/N(CCCCCC(=O)NCc3cc(C(=O)NCCNC(=O)CCc4cn(CCCCC5CCN(CC(=O)N6c7ccccc7NC(=O)c7ccccc76)CC5)cn4)cc(C(=O)NCCNC(=O)CCc4cn(CCCCC5CCN(CC(=O)N6c7ccccc7NC(=O)c7ccccc76)CC5)cn4)c3)c3ccc(S(=O)(=O)O)cc3C2(C)C)=[N+](CCCCS(=O)(=O)[O-])c2ccccc21.O=C(O)C(F)(F)F.O=C(O)C(F)(F)F.O=C(O)C(F)(F)F', 75.9);
